Data provenance is ChEMBL document CHEMBL1140721.

- System: Trypanosoma brucei
- protocolText: Antitrypanosomal activity against Trypanosoma brucei
- Type: functional, organism-based
pIC50: −log10 of the molar value.
testReadout: pIC50

CC(Nc1nc(C#N)nc2c1ncn2Cc1ccccc1)c1ccccc1 (centres undefined)
5.89
N#Cc1nc(NCc2ccc(Cl)cc2)c2ncn(Cc3cccc(C(F)(F)F)c3)c2n1
6.47
N#Cc1nc(NCc2ccccc2)c2ncn(Cc3cccc(C(F)(F)F)c3)c2n1
6.59
N#Cc1nc(NCc2ccc(Cl)c(Cl)c2)c2ncn(CCCCCO)c2n1
7.22
CCCCn1cnc2c(NC(C)c3ccccc3)nc(C#N)nc21 (centres undefined)
5.82
N#Cc1nc(NCc2ccc(F)cc2)c2ncn(Cc3ccccc3)c2n1
6.05

a: N#Cc1nc(NCc2ccc(F)cc2)c2ncn(CCCCO)c2n1
b: Cc1cccc(CNc2nc(C#N)nc3c2ncn3Cc2ccccc2)c1
Which value of pIC50 is smaller, the one for a or the one for b ? Response format: the label of the selected entry. a
